Target: T1, CaBdf1 BD2 (GST-tagged, wild-type) (Candida albicans (strain SC5314 / ATCC …, UniProt Q5A4W8))
T1 chain: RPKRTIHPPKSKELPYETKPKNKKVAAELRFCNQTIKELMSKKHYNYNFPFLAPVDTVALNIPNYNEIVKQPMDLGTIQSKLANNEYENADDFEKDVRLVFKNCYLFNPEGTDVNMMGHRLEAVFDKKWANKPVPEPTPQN
Assay: histone peptide array (Active Motif MODified), 1 uM GST-tagged bromodomain, anti-GST detection, normalized mean intensity
Square brackets hold non-standard residues; d marks the D form. Ends that are not written are not given here. Arg(Me2a) = CN(C)C(=N)NCCC[C@H](N)C(=O)O; pT = C[C@@H](OP(=O)(O)O)[C@H](N)C(=O)O; pS = N[C@@H](COP(=O)(O)O)C(=O)O
Kind request: treat 0.004 as inclusive, so binding score at 0.004 or higher is 1, anything lower is -1.

Ask: Check if binding score >= 0.004 (inclusive). Item: ARTKQTA[Arg(Me2a)]K(Me)[pS][pT]GGKAPRKQ
Result: -1

Ask: Also SGRGKGGKGLGKGGAKRHR (S G Rme2s G Kac G G K G L G K G G A K R H R) [H4 1-19] ?
Result: 1

Ask: Also SGRGK(Ac)QGGK(Ac)ARAKAKSRSS [H2a 1-19] ?
Result: 1

Ask: Also ARTKQTARKSTGGKAPRKQ (A R T K Q T A R Kme3 pS T G G K A P R K Q) ?
Result: -1

Ask: Also ARTKQTARKSTGGKAPRKQ (A R T K Q T A R Kme3 S pT G G K A P R K Q) ?
Result: -1
